System: HEK-293T
EXPERIMENT SUMMARY: Multiplex assay against HEK293T
Assay type: toxicity, cell-based
RUN PARAMETERS: human, 12 h, 10 µM, compound concentration 10 uM, replicate 2
QUANTITY KIND: Population Fragmented Nuclei (%)
Numbers only, in %.

Sample answers from the record:
compound="C[C@@H](NCCCc1cccc(C(F)(F)F)c1)c1cccc2ccccc12.Cl [CINACALCET HYDROCHLORIDE]" measured_number=3
compound="CN1CCN(CCOc2cc(OC3CCOCC3)c3c(Nc4c(Cl)ccc5c4OCO5)ncnc3c2)CC1 [SARACATINIB]" measured_number=6
compound="C=CC(=O)Nc1cc2c(Nc3ccc(F)c(Cl)c3)ncnc2cc1OCCCN1CCOCC1.Cl.Cl [CANERTINIB DIHYDROCHLORIDE]" measured_number=6
compound=COc1cc2nccc(Oc3ccc(NC(=O)Nc4cc(C)on4)c(Cl)c3)c2cc1OC.O measured_number=3
compound=CN(C)C(=O)/C(C#N)=C/c1ccc(-c2nc3cnc4[nH]ccc4c3n2C2CCCCC2)o1 measured_number=17

Give measured Population Fragmented Nuclei (%) for every item shown.
1. COc1ncc(-c2ccc3nccc(-c4ccnnc4)c3c2)cc1NS(=O)(=O)c1ccc(F)cc1F [OMIPALISIB]
2. CN1CCC[C@@H]1CCO[C@](C)(c1ccccc1)c1ccc(Cl)cc1.O=C(O)/C=C/C(=O)O [CLEMASTINE FUMARATE]
3. Cc1cc(C)cc(-c2cnc3cc(Cl)c(-c4cccc(O)c4)cc3c2OCCCN)c1
4. CNc1nc(NCc2ccc(NS(C)(=O)=O)cc2Cl)cc(-c2ccccn2)n1

a:
1. 4
2. 6
3. 5
4. 4
